- assay system: BRG-1 (Homo sapiens)
- Sequence (P51532 whole entry): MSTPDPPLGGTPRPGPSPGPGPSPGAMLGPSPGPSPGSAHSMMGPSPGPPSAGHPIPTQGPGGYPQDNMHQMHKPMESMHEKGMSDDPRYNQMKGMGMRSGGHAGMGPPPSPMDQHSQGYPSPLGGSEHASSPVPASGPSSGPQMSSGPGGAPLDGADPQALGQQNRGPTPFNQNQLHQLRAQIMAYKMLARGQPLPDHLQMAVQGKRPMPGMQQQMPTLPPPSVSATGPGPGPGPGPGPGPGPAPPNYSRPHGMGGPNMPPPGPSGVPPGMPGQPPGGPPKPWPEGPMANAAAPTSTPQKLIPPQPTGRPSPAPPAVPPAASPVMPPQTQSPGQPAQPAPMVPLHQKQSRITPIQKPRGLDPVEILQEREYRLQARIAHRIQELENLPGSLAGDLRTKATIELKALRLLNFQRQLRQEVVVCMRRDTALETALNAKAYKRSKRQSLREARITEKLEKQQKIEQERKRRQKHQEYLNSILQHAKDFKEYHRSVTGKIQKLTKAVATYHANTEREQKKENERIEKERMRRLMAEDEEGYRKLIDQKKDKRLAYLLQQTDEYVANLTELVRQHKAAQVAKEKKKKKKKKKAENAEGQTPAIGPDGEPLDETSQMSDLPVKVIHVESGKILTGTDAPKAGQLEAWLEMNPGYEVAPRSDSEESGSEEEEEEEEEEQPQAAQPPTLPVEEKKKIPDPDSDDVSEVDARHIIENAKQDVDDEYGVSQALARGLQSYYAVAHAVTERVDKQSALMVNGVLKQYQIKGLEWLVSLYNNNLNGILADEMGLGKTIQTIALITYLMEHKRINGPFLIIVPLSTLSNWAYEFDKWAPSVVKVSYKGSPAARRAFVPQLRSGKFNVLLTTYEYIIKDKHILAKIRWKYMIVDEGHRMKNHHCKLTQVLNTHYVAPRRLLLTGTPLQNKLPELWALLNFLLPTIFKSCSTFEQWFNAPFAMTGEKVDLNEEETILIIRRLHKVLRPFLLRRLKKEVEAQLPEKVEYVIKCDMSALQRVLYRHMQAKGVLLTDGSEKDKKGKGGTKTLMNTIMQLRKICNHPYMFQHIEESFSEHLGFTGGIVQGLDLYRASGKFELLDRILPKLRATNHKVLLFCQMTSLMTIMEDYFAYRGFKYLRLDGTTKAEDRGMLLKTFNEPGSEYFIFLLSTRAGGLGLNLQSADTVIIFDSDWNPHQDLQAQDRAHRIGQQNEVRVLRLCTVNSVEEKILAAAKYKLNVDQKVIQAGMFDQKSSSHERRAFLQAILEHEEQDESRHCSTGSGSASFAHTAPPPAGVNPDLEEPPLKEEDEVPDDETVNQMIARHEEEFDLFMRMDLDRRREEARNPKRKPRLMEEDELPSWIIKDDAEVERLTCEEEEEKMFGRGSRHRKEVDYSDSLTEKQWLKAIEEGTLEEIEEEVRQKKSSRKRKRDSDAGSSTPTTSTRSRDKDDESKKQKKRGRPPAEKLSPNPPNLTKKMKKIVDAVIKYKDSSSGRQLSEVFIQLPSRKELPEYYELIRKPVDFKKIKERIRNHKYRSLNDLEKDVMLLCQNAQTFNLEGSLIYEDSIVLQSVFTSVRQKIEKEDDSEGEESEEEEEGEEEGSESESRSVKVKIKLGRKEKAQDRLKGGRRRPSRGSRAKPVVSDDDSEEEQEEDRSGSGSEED
- measurement description: ATPase catalytic activity assay (ADP-Glo), BRG-1
- measurement parameters: 1 h, read-out: BRG1 Max % Inhibition, ADP-Glo, 30 nM BRG-1, 400 μM ATP
property measured: Emax (%)

CN1CCC(NC(=O)c2cccc(-c3ccc4cnc(CNC(=O)c5ccc6c(c5)[C@](C)(C#N)COC6)cc4n3)c2)CC1	96
C[C@@]1(C#N)COCc2ccc(C(=O)NCc3cc4nc(-c5cncc(N6CC[C@H](F)C6)n5)ccc4cn3)cc21	95
C[C@@]1(C#N)COCc2ccc(C(=O)NCc3cc(OCc4cccc(N5CCC5)c4)ccn3)cc21	67
C[C@@]1(C#N)COCc2ccc(C(=O)NCc3cc4nc(-c5ccccn5)ccc4cn3)cc21	56
